Tested on: Calu-3
Assay: cell viability relative to DMSO; higher = less toxic
Conditions: 72 h; 10 nM
measured parameter: cell viability (%)
The reply should contain only the number, in %.

CC(=O)Nc1cccc(-n2c(=O)n(C3CC3)c(=O)c3c(Nc4ccc(I)cc4F)n(C)c(=O)c(C)c32)c1 [trametinib]    73.6
CC(C)[C@@H]1CC[C@@H](C)C[C@H]1O [levomenthol]    92.9

Inquiry: Can you share its cell viability? I mean this compound: N[C@@H]1CCCCN(c2c(F)cc3c(=O)c(C(=O)O)cn(C4CC4)c3c2Cl)C1 [besifloxacin]
Reply text: 97.3

Inquiry: I would be grateful if you could share the reported cell viability for CC1Sc2c(C(=O)O)c(=O)c3cc(F)c(N4CCNCC4)cc3n21 (centres undefined) [ulifloxacin] .
Reply text: 95.3

Inquiry: # query: cell viability of entry CONC(=N)c1ccc(-c2ccc(-c3ccc(C(=N)NOC)cc3)o2)cc1 [pafuramidine]
Reply text: 97.4

Inquiry: So what's the measured cell viability for this one? C[n+]1ccc(C(=O)NCc2ccccc2)cc1 [enisamium-iodide]
Reply text: 100

Inquiry: I have this compound here, O=S(=O)(O)CCSSCCS(=O)(=O)O [dimesna] , and I need its recorded cell viability.
Reply text: 96.3

Inquiry: Value lookup for cell viability; key = O=c1cccc2n1C[C@@H]1CNC[C@H]2C1 [cytisine]
Reply text: 95.6

Inquiry: Requested read-out: cell viability. Entry: CN1[C@@H]2C[C@@H](O)C[C@H]1[C@@H]1O[C@@H]12 [scopine]
Reply text: 90.1

###

Tested on: Caco-2
Experiment: cell viability relative to DMSO; higher = less toxic
Conditions: 72 h; 10 nM
measured parameter: cell viability (%)
Field format: number, assumed %, no unit text.

Some compounds with known cell viability results, for comparison:
CN[C@@H](C)C(=O)N[C@H](C(=O)N1CCC[C@H]1C(=O)Nc1sc(-c2ncco2)nc1-c1ccccc1)C1CCCCC1    101
Cc1c(C(=O)Nc2ccc(N3C[C@@H](C)O[C@@H](C)C3)nc2)cccc1-c1ccc(OC(F)(F)F)cc1    98.8
CC1(C)[C@H]2CC[C@]1(C)[C@@H](O)[C@H]2O [cis-exo-camphanediol-2,3]    104
CN(c1nccc(=O)[nH]1)C1CCN(c2nc3ccccc3n2Cc2ccc(F)cc2)CC1    99.9
COCCOC(=O)C1=C(C)NC(C)=C(C(=O)OC/C=C/c2ccccc2)C1c1cccc([N+](=O)[O-])c1 (configuration not stated)    94.3
C[C@H](/C=C/[C@H](C)C(C)(C)O)[C@H]1CC[C@H]2/C(=C/C=C3C[C@@H](O)C[C@H](O)C3)CCC[C@]12C    101
CC1(C)CCC(C)(C)c2cc(NC(=O)c3ccc(C(=O)O)cc3)ccc21    100
CN1[C@@H]2C[C@@H](O)C[C@H]1[C@@H]1O[C@@H]12    93

Inquiry: Item under review: CN(Cc1ccccc1)C(=O)[C@H](Cc1ccc2ccccc2c1)NC(=O)[C@@H]1CCCN1C(=O)Nc1ccccc1[N+](=O)[O-] . Reported cell viability?
Reply text: 97.3

###

System: Caco-2
Assay: cell viability relative to DMSO; higher = less toxic
Details: 72 h; 10000 nM
measured parameter: cell viability
Entry format: amount then unit.

CCCCNc1cc(C(=O)O)cc(S(N)(=O)=O)c1Oc1ccccc1 [bumetanide]    96.7%

Inquiry: If you can, please state the reported cell viability value of CN1C2C=C(c3sccc3Br)CC1CC2 (centres undefined) .
Reply text: 101%

Inquiry: # get_value(readout='cell viability', item= Cn1c(NCCN(CCO)CCCc2ccc([N+](=O)[O-])cc2)cc(=O)n(C)c1=O )
Reply text: 92.5%

Inquiry: Dear colleague, I am looking for the recorded cell viability of the following compound: C#C[C@]1(O)CC[C@H]2[C@@H]3CCC4=C(CCC(=O)C4)[C@H]3CC[C@@]21C
Reply text: 99%

###

Tested on: Vero E6
Assay: relative viability EC50 (midpoint between 100% and the lowest measured viability); higher = less toxic
Conditions: 72 h
relative viability EC50 by entry:

Inquiry: Fill blank: measured relative viability EC50 of the compound Cn1ncc(Cl)c1-c1cc(C(=O)N[C@H](CN)Cc2cccc(F)c2)sc1Cl is ____.
Reply text: > 10 µM

Inquiry: # relative viability EC50 lookup, item OC[C@H]1O[C@H](O)C[C@@H](O)[C@@H]1O [2-deoxyglucose]
Reply text: > 10 µM

Inquiry: Entry under review: O=S(=O)(O)CCSSCCS(=O)(=O)O [dimesna] . Reported relative viability EC50?
Reply text: > 10 µM

###

Test system: Calu-3
Assay: cell viability relative to DMSO; higher = less toxic
Details: 72 h; 100 nM
measured parameter: cell viability (%)
Use % as the unit, but write only the number.

c1ccc2c(Oc3nc(Nc4ccc(N5CCOCC5)cc4)c4ncn(C5CCCCC5)c4n3)cccc2c1    94.3

Inquiry: What measured cell viability goes with Cc1ccc([N+](=O)[O-])cc1S(=O)(=O)N(C)C ?
Reply text: 94.8

Inquiry: Which cell viability is reported for this molecule? CC(C)NC[C@@H](O)c1ccc(O)c(O)c1 (racemic)
Reply text: 94.4

###

System: HepG2
Experiment: drug sensitivity score (DSS) for viability; higher = more toxic; extreme values may be limits of the assay
Settings: 72 h
measured parameter: drug sensitivity score

Before answering, review these 3 worked examples.
Cn1nnc(-c2ccc(-c3ccc(N4C[C@H](CO)OC4=O)cc3F)cn2)n1 [tedizolid]    5.1
CC[C@@]1([C@H]2O[C@H]([C@H]3O[C@@](O)(CO)[C@H](C)C[C@@H]3C)C[C@H]2C)CC[C@H]([C@@]2(C)CC[C@]3(C[C@H](O)[C@@H](C)[C@@H]([C@H](C)[C@H](OC)[C@@H](C)C(=O)O)O3)O2)O1 [MONENSIN SODIUM]    6.8
O=C(O)Cc1cccc2c(=O)cc(-c3ccccc3)oc12 [mitoflaxone]    0

As a next step, examine the compound that follows.
Inquiry: Consider the compound shown here: Cc1cc(C)cc(C(=O)NOCCCCCC(=O)NO)c1 [LMK-235] What is its recorded drug sensitivity score?
Reply text: 15.1

###

System: U2OS
Test: cell viability relative to DMSO; higher = less toxic
Settings: 72 h; 10 nM
measured parameter: cell viability (%)
The reply should be a number in %, with the unit left off.

CCCCCC(=O)O[C@]1(C(C)=O)CC[C@H]2[C@@H]3CCC4=CC(=O)CC[C@]4(C)[C@H]3CC[C@@]21C [17-hydroxyprogesterone-caproate]    95.7

Inquiry: Notebook entry, U2OS assay: cell viability of Nc1nc(O)c2ncn(CCC(CO)CO)c2n1 [penciclovir] = ?
Reply text: 95.9

Inquiry: Hello, I am looking for reported cell viability with U2OS for CCCCCCNC(=O)n1cc(F)c(=O)[nH]c1=O [carmofur] . Could you help?
Reply text: 103

###

Quick list: cell viability per entry.
System: Calu-3
Assay: cell viability relative to DMSO; higher = less toxic
Conditions: 72 h; 1000 nM
State the answer as a number, implicitly in %.

Examples with their reported cell viability follow.
COC(=O)N[C@H](C(=O)N1CCC[C@H]1c1nc(-c2ccc3c(c2)O[C@@H](c2ccccc2)n2c-3cc3cc(-c4c[nH]c([C@@H]5CCCN5C(=O)[C@@H](NC(=O)OC)C(C)C)n4)ccc32)c[nH]1)C(C)C [elbasvir]    107
NCC1OC(C23CC4CC(CC(C4)C2)C3)Cc2c1ccc(O)c2O (stereo not given)    94.2
CCCCc1cc2ccccc2c(OCCN(C)C)n1 [dimethisoquin]    95.6
C/C(=N\NC(=N)N)c1cc(NC(=O)CCCCCCCCC(=O)Nc2cc(/C(C)=N/NC(=N)N)cc(/C(C)=N/NC(=N)N)c2)cc(/C(C)=N/NC(=N)N)c1 [semapimod]    88.1
COc1cc2c(NC3CCN(C)CC3)nc(N3CCCN(C)CC3)nc2cc1OCCCN(C)C [UNC0224]    97.9
O=C(CCc1ccncc1)NNC(=O)N1Cc2ccccc2Oc2ccc(Cl)cc21    87.8
O=c1cc(N2CCOCC2)oc2c(-c3ccccc3)cccc12    98.2
O=C(N[C@@H]1Cc2ccccc2N(C[C@@H](O)CO)C1=O)c1cc2cc(Cl)sc2[nH]1 [GPi-688]    94.1
CN1CCN(CCCN2c3ccccc3Sc3ccc(Cl)cc32)CC1 [prochlorperazine]    105
CCOc1nc2cccc(C(=O)OCc3oc(=O)oc3C)c2n1Cc1ccc(-c2ccccc2-c2noc(=O)[nH]2)cc1 [azilsartan-medoxomil]    101

Inquiry: Need cell viability of CCn1c(-c2nonc2N)nc2cnc(Oc3cccc(NC(=O)c4ccc(OCCN5CCOCC5)cc4)c3)cc21 , thanks.
Reply text: 131

Inquiry: Given CC1(C)CCC(C)(C)c2cc(NC(=O)c3ccc(C(=O)O)cc3)ccc21 [tamibarotene] , state its recorded cell viability.
Reply text: 67.8

Inquiry: Look up cell viability for this molecule: FC(F)(F)c1ccc(CNc2ccc(Cc3c[nH]c4ncccc34)cn2)cc1 [PLX647]
Reply text: 93.9

Inquiry: Name the recorded cell viability for Cc1nn(-c2ccccc2)c(C)c1/C=N/N1CCN(Cc2ccccc2)CC1 [SANT-1] .
Reply text: 81.7

Inquiry: Give its cell viability value. Item: O=C1C(CC[S+]([O-])c2ccccc2)C(=O)N(c2ccccc2)N1c1ccccc1 (stereo not given) [sulfinpyrazone]
Reply text: 94
